test system: Klebsiella pneumoniae; test: Antibacterial activity against Klebsiella pneumoniae ATCC 13833 incubated for 18 to 24 hrs by CLSI based microdilution broth method; type: functional; conditions: Klebsiella pneumoniae, ATCC 13833; time 18-24 hrs; read-out: MIC
Measured MIC by item
recorded_metric: MIC (µg/mL)

CNC(=O)NCCCCCCCCN(CCCCCCCCNC(=N)NCC1CC1)C(=O)N(CCCCCCCCNC(=N)NCC1CC1)CCCCCCCCNC(=O)NC.O=C(O)C(F)(F)F    16
CNC(=S)NCCCCCCCCN(CCCCCCCCNC(=N)NCC1CC1)C(=O)N(CCCCCCCCNC(=N)NCC1CC1)CCCCCCCCNC(=S)NC.O=C(O)C(F)(F)F    16
C/C=C/CNC(=N)NCCCCCCCCNC(N)=O.O=C(O)C(F)(F)F    128
CC(C)=CCC/C(C)=C/CNC(=N)NCCCCCCCCN(CCCCCCCCNC(=N)N)C(=O)N(CCCCCCCCNC(=N)N)CCCCCCCCNC(=N)NC/C=C(\C)CCC=C(C)C.O=C(O)C(F)(F)F    2
N=C(N)NCCCCCCCN(CCCCCCCNC(=N)NCC1CC1)C(=O)N(CCCCCCNC(=N)N)CCCCCCNC(=N)NCC1CC1.O=C(O)C(F)(F)F    8
COCCNC(=N)NCCCCCCCCN(CCCCCCCCNC(=N)N)C(=O)N(CCCCCCCCNC(=N)N)CCCCCCCCNC(=N)NCCOC.O=C(O)C(F)(F)F    2
